biological target: Cannabinoid receptor 2 (Homo sapiens, UniProt P34972); assay: Displacement of [3H]CP55,940 from human CB2 receptor expressed in CHO cells at 10 uM after 2 hrs by liquid scintillation counter; type: cell-based
Sequence (P34972 whole entry): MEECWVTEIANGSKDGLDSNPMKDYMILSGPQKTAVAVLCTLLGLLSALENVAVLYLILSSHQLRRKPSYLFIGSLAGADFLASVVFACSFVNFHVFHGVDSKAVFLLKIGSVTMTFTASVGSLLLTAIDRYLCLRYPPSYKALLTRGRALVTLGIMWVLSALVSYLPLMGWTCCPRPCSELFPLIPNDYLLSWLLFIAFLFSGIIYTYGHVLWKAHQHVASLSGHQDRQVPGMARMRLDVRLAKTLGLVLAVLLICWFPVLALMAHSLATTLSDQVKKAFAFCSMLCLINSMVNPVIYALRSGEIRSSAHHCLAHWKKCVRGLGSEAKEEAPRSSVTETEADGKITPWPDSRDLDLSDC
Decision: inhibition compared against 30%; not below it gives 1 (yes), below it gives 0 (no).

Input: Reported inhibition at or above 30%? "COc1cccc(Cc2cc3c(OC)cc(CO)cc3oc2=O)c1"
Output: 0 (no)

Input: // query: "CCCCCCCC(C)(C)c1cc(OC)c2cc(Cc3ccccc3OC)c(=O)oc2c1"
Output: 1 (yes)

Input: // query: "CCCCC1(c2cc(OC)c3cc(Cc4ccccc4OC)c(=O)oc3c2)CCCCC1"
Output: 1 (yes)

Input: // query: "Cc1cc(O)c2cc(Cc3ccccc3C)c(=O)oc2c1"
Output: 1 (yes)

Input: // query: "COc1cccc(Cc2cc3c(OC)cc(CO[Si](c4ccccc4)(c4ccccc4)C(C)(C)C)cc3oc2=O)c1"
Output: 0 (no)

Input: // query: "Cc1ccc(C(C)C)c2cc(Cc3ccccc3O)c(=O)oc12"
Output: 0 (no)

Input: // query: "Cc1ccc(Cc2cc3c(O)cc(C)cc3oc2=O)cc1"
Output: 0 (no)

Input: // query: "COc1cccc(Cc2cc3c(OC)cccc3oc2=O)c1"
Output: 0 (no)
